# Tested on: CEM cells HIV-1 protection, formazan growth assay
# TEST: NCI AIDS Antiviral Assay
# PARTICULARS: measured here: growth of uninfected CEM cells
# Procedure: The ability of compounds to protect human CEM cells from HIV-1 infection is measured as a screen for new compounds capable of inhibiting the HIV virus. Five concentrations of drug were tested on uninfected and infected cells and cell growth was measured using a soluble formazan assay. […] Compounds that provided at least 50% protection were retested. Compounds that provided at least 50% protection on retest were listed as moderately active. […]
// IC50 lookup, one value per entry

{"columns": ["COMPOUND", "IC50"],
 "data": [
  ["Cc1nn2cnnc2s1", "> 501 µM"],
  ["CCOC(=O)/C(Cc1cc(=O)n(C)c2ccccc12)=N\\Nc1ccccc1", "> 200 µM"],
  ["CN1C(=O)N/C(=C\\c2ccc(S(=O)(=O)N/N=C\\C(O)C(O)C(O)CO)cc2)C1=O (stereo not drawn)", "> 200 µM"]
]}
